Every entry's value here was drawn from ChEMBL document CHEMBL1142908.

Target: Nitric oxide synthase 3 (Bos taurus, UniProt P29473)
Sequence (P29473 whole entry): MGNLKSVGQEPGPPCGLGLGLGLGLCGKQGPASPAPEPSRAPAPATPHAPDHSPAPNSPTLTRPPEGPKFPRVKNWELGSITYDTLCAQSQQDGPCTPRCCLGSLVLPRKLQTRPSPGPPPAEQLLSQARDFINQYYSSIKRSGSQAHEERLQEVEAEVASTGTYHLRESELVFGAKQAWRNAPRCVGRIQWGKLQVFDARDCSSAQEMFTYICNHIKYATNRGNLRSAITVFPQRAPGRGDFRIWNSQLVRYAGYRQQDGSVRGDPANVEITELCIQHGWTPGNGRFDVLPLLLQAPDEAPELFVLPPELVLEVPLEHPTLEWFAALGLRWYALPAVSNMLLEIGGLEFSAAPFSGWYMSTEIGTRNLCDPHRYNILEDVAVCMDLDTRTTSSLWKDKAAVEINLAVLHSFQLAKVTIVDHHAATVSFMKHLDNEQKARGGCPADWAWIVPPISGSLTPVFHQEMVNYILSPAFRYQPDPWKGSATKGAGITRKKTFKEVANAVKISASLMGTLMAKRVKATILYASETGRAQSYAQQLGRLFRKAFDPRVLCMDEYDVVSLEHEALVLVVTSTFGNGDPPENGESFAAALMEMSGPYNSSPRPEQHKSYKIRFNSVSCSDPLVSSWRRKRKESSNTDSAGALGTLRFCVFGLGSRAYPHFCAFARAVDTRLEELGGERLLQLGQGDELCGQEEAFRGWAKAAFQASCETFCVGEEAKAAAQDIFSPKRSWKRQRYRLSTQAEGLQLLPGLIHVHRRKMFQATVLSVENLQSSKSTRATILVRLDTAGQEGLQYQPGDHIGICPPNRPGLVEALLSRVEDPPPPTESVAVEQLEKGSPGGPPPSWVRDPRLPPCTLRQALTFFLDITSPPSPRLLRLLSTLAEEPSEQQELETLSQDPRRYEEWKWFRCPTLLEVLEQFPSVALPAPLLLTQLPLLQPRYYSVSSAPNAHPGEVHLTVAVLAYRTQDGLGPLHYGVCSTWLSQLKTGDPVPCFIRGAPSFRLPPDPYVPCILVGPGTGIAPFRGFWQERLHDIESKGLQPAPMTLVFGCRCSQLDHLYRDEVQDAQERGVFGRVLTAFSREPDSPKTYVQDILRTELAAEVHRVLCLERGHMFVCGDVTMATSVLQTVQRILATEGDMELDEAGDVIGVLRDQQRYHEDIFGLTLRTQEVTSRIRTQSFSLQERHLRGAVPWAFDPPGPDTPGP
Assay: Inhibition of bovine recombinant eNOS expressed in Escherichia coli assessed as nitric oxide production by hemoglobin capture assay
Residues, ends and D or L forms follow the SMILES beside them.
property_measured: Ki (µM)
Write the number in µM without appending the unit.

Consider the worked cases shown below.
INSERT INTO results (compound, measurement_unit, value_measured) VALUES
  ('N=C(NCCC[C@H](N)C(=O)NC1CCNCC1)N[N+](=O)[O-]', 'µM', 262),
  ('NC(=N[N+](=O)[O-])NCCC[C@H](N)C(=O)N[C@@H]1CCCNC1', 'µM', 225),
  ('N=C(NCCC[C@H](N)C(=O)N[C@H]1CCCNC1)N[N+](=O)[O-]', 'µM', 221),
  ('CN[C@@H](CCCNC(N)=N[N+](=O)[O-])C(=O)N[C@@H]1CCNC1', 'µM', 160),
  ('NC(=N[N+](=O)[O-])NCCC[C@H](N)C(=O)N[C@@H]1CCNC1', 'µM', 68);

Exercise: Which Ki is reported with Nitric oxide synthase 3 (Bos taurus, UniProt P29473) for this entry: CN[C@@H](CCCNC(N)=N[N+](=O)[O-])C(=O)NC1CCNCC1 ?
Key: 114

Exercise: What about NC(=N[N+](=O)[O-])NCCC[C@H](N)C(=O)N[C@H]1CCNC1 ?
Key: 77

Exercise: Let us now turn to CN[C@@H](CCCNC(N)=N[N+](=O)[O-])C(=O)N[C@@H]1CCCNC1
Key: 174

Exercise: Entry CN[C@@H](CCCNC(=N)N[N+](=O)[O-])C(=O)N[C@H]1CN[C@H](C(N)=O)C1 please
Key: 290

Exercise: Consider next the compound C[C@H](NC(=O)[C@H](CC(N)=O)NC(=O)[C@@H](N)CC(N)=O)C(=O)O (H-Asn-Asn-Ala-OH) in the same way.
Key: 0.72

* * *

Assay: Selectivity of rat recombinant nNOS over bovine recombinant eNOS
Residues, ends and D or L forms follow the SMILES beside them.
property_measured: Ratio Ki

INSERT INTO measurements (compound, value_measured) VALUES
  ('N=C(NCCC[C@H](N)C(=O)N[C@H]1CCCNC1)N[N+](=O)[O-]', 29),
  ('C[C@H](NC(=O)[C@H](CC(N)=O)NC(=O)[C@@H](N)CC(N)=O)C(=O)O (H-Asn-Asn-Ala-OH)', 1.2),
  ('CN[C@@H](CCCNC(=N)N[N+](=O)[O-])C(=O)N[C@H]1CN[C@H](C(N)=O)C1', 266),
  ('CN[C@@H](CCCNC(=N)N[N+](=O)[O-])C(=O)N[C@@H]1CCNC1', 148),
  ('CN[C@@H](CCCNC(=N)N[N+](=O)[O-])C(=O)NC1CCNCC1', 48),
  ('N=C(NCCC[C@H](N)C(=O)N[C@H]1CCNC1)N[N+](=O)[O-]', 44),
  ('N=C(NCCC[C@H](N)C(=O)N[C@@H]1CCNC1)N[N+](=O)[O-]', 309),
  ('N=C(NCCC[C@H](N)C(=O)N[C@@H]1CCCNC1)N[N+](=O)[O-]', 469),
  ('N=C(NCCC[C@H](N)C(=O)NC1CCNCC1)N[N+](=O)[O-]', 557);

Pending compound:
Exercise: // Ratio Ki lookup, key: CN[C@@H](CCCNC(=N)N[N+](=O)[O-])C(=O)N[C@@H]1CCCNC1
Key: 77

* * *

Below, each entry is listed with its recorded pKi.
Molecular target: Nitric oxide synthase, inducible (Mus musculus, UniProt P29477)
Sequence (P29477 whole entry): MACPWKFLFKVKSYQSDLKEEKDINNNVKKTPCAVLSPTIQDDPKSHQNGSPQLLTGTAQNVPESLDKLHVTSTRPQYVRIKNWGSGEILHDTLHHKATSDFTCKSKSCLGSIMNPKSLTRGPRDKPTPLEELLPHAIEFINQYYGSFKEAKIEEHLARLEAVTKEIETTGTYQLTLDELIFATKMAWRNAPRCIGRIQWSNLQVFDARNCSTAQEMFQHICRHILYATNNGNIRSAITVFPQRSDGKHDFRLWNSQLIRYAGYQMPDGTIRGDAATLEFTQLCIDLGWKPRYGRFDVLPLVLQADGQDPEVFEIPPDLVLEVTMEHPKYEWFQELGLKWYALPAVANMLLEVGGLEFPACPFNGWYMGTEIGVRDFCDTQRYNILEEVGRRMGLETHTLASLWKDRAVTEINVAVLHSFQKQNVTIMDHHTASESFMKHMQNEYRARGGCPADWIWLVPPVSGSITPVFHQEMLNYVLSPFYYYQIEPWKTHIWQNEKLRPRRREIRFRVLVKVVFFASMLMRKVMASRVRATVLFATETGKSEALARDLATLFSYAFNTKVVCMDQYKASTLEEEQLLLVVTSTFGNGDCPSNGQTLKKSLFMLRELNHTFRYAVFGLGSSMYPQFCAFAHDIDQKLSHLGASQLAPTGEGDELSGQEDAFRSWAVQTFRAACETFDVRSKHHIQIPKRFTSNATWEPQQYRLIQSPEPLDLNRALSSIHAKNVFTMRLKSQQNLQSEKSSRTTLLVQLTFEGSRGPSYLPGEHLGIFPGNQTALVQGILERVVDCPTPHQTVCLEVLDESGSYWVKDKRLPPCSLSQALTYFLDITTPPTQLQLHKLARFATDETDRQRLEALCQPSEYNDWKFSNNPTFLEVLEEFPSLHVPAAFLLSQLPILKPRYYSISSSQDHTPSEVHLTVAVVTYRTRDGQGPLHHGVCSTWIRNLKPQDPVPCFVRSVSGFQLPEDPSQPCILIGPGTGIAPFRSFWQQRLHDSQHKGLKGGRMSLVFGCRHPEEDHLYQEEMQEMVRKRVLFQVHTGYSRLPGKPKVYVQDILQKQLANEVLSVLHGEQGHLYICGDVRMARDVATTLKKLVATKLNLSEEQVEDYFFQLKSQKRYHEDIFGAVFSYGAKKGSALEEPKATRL
Experiment: Inhibition of mouse recombinant iNOS expressed in Escherichia coli assessed as nitric oxide production by hemoglobin capture assay
Residues, ends and D or L forms follow the SMILES beside them.
To interpret pKi, take it as minus log10 of a concentration measured in moles per litre.

Recorded pKi, per entry:
INSERT INTO assay_data (compound, study_system, value_measured) VALUES
  ('N=C(NCCC[C@H](N)C(=O)NC1CCNCC1)N[N+](=O)[O-]', 'Nitric oxide synthase, inducible (Mus musculus, UniProt P29477)', 3.69),
  ('NC(=O)[C@@H]1C[C@@H](NC(=O)[C@@H](N)CCC/N=C(\N)N[N+](=O)[O-])CN1', 'Nitric oxide synthase, inducible (Mus musculus, UniProt P29477)', 4.77);

Exercise: I am curious: what pKi value has been reported for CN[C@@H](CCCNC(N)=N[N+](=O)[O-])C(=O)NC1CCNCC1 ?
Key: 3.29

Exercise: // query: CN[C@@H](CCCNC(N)=N[N+](=O)[O-])C(=O)N[C@@H]1CCCNC1
Key: 3.62

Exercise: Queued: CN[C@@H](CCCNC(=N)N[N+](=O)[O-])C(=O)N[C@H]1CN[C@H](C(N)=O)C1
Key: 4.19

Exercise: Proceed to NC(=N[N+](=O)[O-])NCCC[C@H](N)C(=O)N[C@H]1CCNC1
Key: 4.24

Exercise: Proceed to N=C(NCCC[C@H](N)C(=O)N[C@H]1CCCNC1)N[N+](=O)[O-]
Key: 3.27

Exercise: Could you do the same for CN[C@@H](CCCNC(N)=N[N+](=O)[O-])C(=O)N[C@@H]1CCNC1 , please?
Key: 3.91

Exercise: Next: NC(=N[N+](=O)[O-])NCCC[C@H](N)C(=O)N[C@@H]1CCCNC1
Key: 4.05

Exercise: Continue with C[C@H](NC(=O)[C@H](CC(N)=O)NC(=O)[C@@H](N)CC(N)=O)C(=O)O (H-Asn-Asn-Ala-OH)
Key: 5.37

Exercise: NC(=N[N+](=O)[O-])NCCC[C@H](N)C(=O)N[C@@H]1CCNC1 ?
Key: 4.26
